Just for reference, patent US20260374766A1 is where these values come from.

target: p53 Y220C (Homo sapiens, UniProt P04637, Y220C); assay: Luciferase Reporter Assay (Luc), p53 response element, NClH1299 cells with inducible p53 Y220C; type: cell-based; conditions: Emax; luciferase reporter, NClH1299 inducible p53 Y220C, 6 hour
Measured Emax of individual entries

Example entries begin here.
[[record]]
smiles_text = "CN1CC[C@@H](Nc2cccn3c(SC(F)(F)F)c(C#CCNc4ccc(P(C)(C)=O)cc4)nc23)[C@@H](F)C1"
quantity_measured = "Emax"
result_value = "80 to 90%"

[[record]]
smiles_text = "CNC(=O)c1cnc(C)c(NCC#Cc2nc3c(N[C@@H]4CCN(C)C[C@@H]4F)cccn3c2SC(F)(F)F)c1"
quantity_measured = "Emax"
result_value = "> 90%"

[[record]]
smiles_text = "COc1cc(C(=O)N2CC(C)(O)C2)ccc1NCC#Cc1cc2c(N[C@@H]3CCNC[C@@H]3F)cccn2c1SC(F)(F)F"
quantity_measured = "Emax"
result_value = "80 to 90%"


For the next question, use this compound.
Look at this compound and give its reported Emax. `COc1cc([S@+](C)[O-])ccc1NCC#Cc1cc2c(N[C@@H]3CCN(C)C[C@@H]3F)cccn2c1SC(F)(F)F`
> 90%

----------
molecular target: p53 Y220C mutant protein (amino acid residues 94-293) (Homo sapiens, UniProt P04637, Y220C); construct: p53 Y220C mutant protein (amino acid residues 94-293); test: Surface Plasmon Resonance (SPR) assay, Kd_kinetic; assay type: binding; conditions: SPR; p53 Y220C; read-out: SPR P53 Y220C KD kinetic
Sequence (P04637 94-293, stated change not applied): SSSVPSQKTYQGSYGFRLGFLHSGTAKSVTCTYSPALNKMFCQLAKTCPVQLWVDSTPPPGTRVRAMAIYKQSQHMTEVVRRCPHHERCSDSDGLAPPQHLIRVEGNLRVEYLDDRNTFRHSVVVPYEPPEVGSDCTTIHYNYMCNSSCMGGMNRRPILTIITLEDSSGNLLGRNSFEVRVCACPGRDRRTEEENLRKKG
pKd: −log10 of the molar value.
The molecules listed here are annotated with their pKd.

[[record]]
molecule = "CNC(=O)c1cnc(OC)c(NCC#Cc2nn3c(N[C@@H]4CCN(C)C[C@@H]4F)cccc3c2SC(F)F)c1 [Example 268]"
quantity_measured = "pKd"
result_value = "> 8.00"


Give its pKd value. Item: C[C@H](O)CNC(=O)c1ccc(OC2COC2)c(NCC#Cc2cc3c(N[C@@H]4CCN(C)C[C@@H]4F)cccn3c2SC(F)(F)F)c1 [Example 400]
> 8.00

# input molecule: CNC(=O)c1ccc(NCC#Cc2nc3c(N[C@@H]4CCS(=O)(=O)C4)cccn3c2SC(F)(F)F)c(OC)c1 [Example 230] ; wanted: its pKd
7.00 to 8.00

Which value of pKd has been reported for CNC(=O)c1cnc(C)c(NCC#Cc2nc3c(N[C@@H]4CCN(C)C[C@@H]4F)cccn3c2SC(F)(F)F)c1 [Example 274] in the records?
> 8.00

Please give the measured pKd for this molecule: CNC(=O)c1ccc(NCC#Cc2nc3c(NC4COC4)cccn3c2SC(F)(F)F)c(OC)c1 [Example 225]
7.00 to 8.00

Look at this molecule and give its reported pKd. O=C(NC[C@@H]1COCCO1)c1ccc(NCC#Cc2cc3c(N[C@@H]4CCNC[C@@H]4F)cccn3c2SC(F)(F)F)cc1 [Example 484]
> 8.00

Quick one: pKd for CCNC(=O)c1ccc(OC)c(NCC#Cc2nn3c(N[C@@H]4CCN(C)C[C@@H]4F)cccc3c2SC(F)F)c1 [Example 318] ?
> 8.00

----------
target: p53 Y220C (Homo sapiens, UniProt P04637, Y220C); assay: Luciferase Reporter Assay (Luc), p53 response element, NClH1299 cells with inducible p53 Y220C; assay type: cell-based; details: Emax; luciferase reporter, NClH1299 inducible p53 Y220C, 6 hour
QUANTITY MEASURED: Emax

GET /values?readout=Emax&item= `COc1nc(P(C)(C)=O)ccc1NCC#Cc1cc2c(N[C@@H]3CCN(C)C[C@@H]3F)cccn2c1SC(F)(F)F`
> 90%

Quick one: Emax of `CNC(=O)c1cnc(OC)c(NCC#Cc2nc3c(N[C@H]4C[C@@H]5CC[C@@H](N5)[C@H]4F)cccn3c2SC(F)(F)F)c1` ?
70 to 80%

Which Emax is listed for CNC(=O)c1ccc(NCC#Cc2nc3c(N[C@@H]4C[C@@H]5COC[C@@H](N5)[C@@H]4F)cccn3c2SC(F)(F)F)c(OC)c1 (relative stereo) ?
80 to 90%

State the recorded Emax for this entry: `CN1CC[C@@H](Nc2cccn3c(SC(F)(F)F)c(C#CCNc4ccc(P(C)(C)=O)c5ocnc45)cc23)[C@@H](F)C1`
> 90%

# query: Emax of entry `CNC(=O)c1ccc(OC)c(NCC#Cc2nn3c(N[C@H]4C[C@@H]5CC[C@H]([C@H]4F)N5C)cccc3c2SC(F)(F)F)c1`
80 to 90%

Name the reported Emax value associated with the compound `O=C(NCC1COC1)c1ccc(NCC#Cc2cc3c(N[C@@H]4CCNC[C@@H]4F)cccn3c2SC(F)(F)F)cc1`
70 to 80%

----------
target: p53 Y220C (Homo sapiens, UniProt P04637, Y220C); experiment: Luciferase Reporter Assay (Luc), p53 response element, NClH1299 cells with inducible p53 Y220C; type: cell-based; settings: Emax; luciferase reporter, NClH1299 inducible p53 Y220C, 6 hour
QUANTITY MEASURED: Emax

Would you please look over these solved cases?
[[record]]
molecule = "COc1cc(S(C)(=O)=O)ccc1NCC#Cc1cc2c(N[C@@H]3CCNC[C@@H]3F)cccn2c1SC(F)(F)F [Example 370]"
result_value = "> 90%"

[[record]]
molecule = "C[C@H](O)CNC(=O)c1ccc(OC2COC2)c(NCC#Cc2cc3c(N[C@@H]4CCN(C)C[C@@H]4F)cccn3c2SC(F)(F)F)c1 [Example 400]"
result_value = "80 to 90%"

[[record]]
molecule = "COc1cc(P(C)(C)=O)ccc1NCC#Cc1cc2c(N[C@@H]3CCN(C)C[C@@H]3F)cccn2c1SC(F)F [Example 349]"
result_value = "80 to 90%"

[[record]]
molecule = "COc1cc(P(C)(C)=O)ccc1NCC#Cc1cn2c(N[C@@H]3CCN(C)C[C@@H]3F)cccc2c1SC(F)(F)F [Example 378]"
result_value = "80 to 90%"

[[record]]
molecule = "CNC(=O)c1ccc(OC)c(NCC#Cc2nc3c(N[C@H]4C[C@@H]5CC[C@H]4N5C)cccn3c2SC(F)(F)F)c1 [Example 248]"
result_value = "70 to 80%"

[[record]]
molecule = "COc1ccc(C(=O)NCC(C)(C)O)cc1NCC#Cc1cc2c(N[C@@H]3CCN(C)C[C@@H]3F)cccn2c1SC(F)(F)F [Example 424]"
result_value = "> 90%"

[[record]]
molecule = "CN1CCO[C@H](CNC(=O)c2ccc(NCC#Cc3cc4c(N[C@@H]5CCN(C)C[C@@H]5F)cccn4c3SC(F)(F)F)cc2)C1 [Example 388]"
result_value = "80 to 90%"

[[record]]
molecule = "COc1cc(C(=O)N2CC(C)(O)C2)ccc1NCC#Cc1cc2c(N[C@@H]3CCN(C)C[C@@H]3F)cccn2c1SC(F)(F)F [Example 377]"
result_value = "> 90%"

[[record]]
molecule = "CNC(=O)c1ccc(NCC#Cc2nc3c(N[C@@H]4CCN(C)C[C@@H]4F)cccn3c2SC(F)(F)F)c(C)c1 [Example 239]"
result_value = "> 90%"

[[record]]
molecule = "COc1cc(C(=O)NC[C@H](O)CO)ccc1NCC#Cc1cc2c(N[C@@H]3CCN(C)C[C@@H]3F)cccn2c1SC(F)(F)F [Example 422]"
result_value = "> 90%"


# query: Emax of entry CNC(=O)c1ccc(C#N)c(NCC#Cc2cc3c(N[C@@H]4CCN(C)C[C@@H]4F)nccn3c2SC(F)(F)F)c1 [Example 300]
> 90%

So what does the record say about Emax for CNC(=O)c1ccc(OC[C@H](C)O)c(NCC#Cc2cc3c(N[C@@H]4CCN(C)C[C@@H]4F)nccn3c2SC(F)(F)F)c1 (single isomer, unassigned) [Example 355] ?
> 90%

Requested field: Emax. Item: COc1ncc(C(N)=O)cc1NCC#Cc1nn2c(N[C@@H]3CCN(C)C[C@@H]3F)cccc2c1SC(F)(F)F [Example 276]
80 to 90%

----------
tested on: H1299 p53 Y220C; assay: Cell Proliferation Assay (CellTiter-Glo, CTG), H1299 p53 Y220C (NClH1299-inducible p53 Y220C); type: cell-based; conditions: Homo sapiens, NCI-H1299, 120 h, CellTiter-Glo, H1299 p53 Y220C, 5 days
Structures can show the parent of a compound that is named as a salt.
Each item that follows carries a reported IC50.

[[record]]
compound = "CNC(=O)c1ccc(NCC#Cc2nc3c(NCC4(F)CN(C)C4)cccn3c2SC(F)(F)F)c(OC)c1"
quantity_measured = "IC50"
result_value = "750 to 1500 nM"

[[record]]
compound = "CNC(=O)c1ccc(NCC#Cc2nc3c(N[C@H]4CN(C)CC[C@@H]4F)cccn3c2SC(F)(F)F)c(OC)c1"
quantity_measured = "IC50"
result_value = "< 750 nM"

[[record]]
compound = "COc1ccc(C(=O)N2CCC2)cc1NCC#Cc1nc2c(N[C@@H]3CCN(C)C[C@@H]3F)cccn2c1SC(F)(F)F"
quantity_measured = "IC50"
result_value = "1500 to 3000 nM"

[[record]]
compound = "CNC(=O)c1ccc(NCC#Cc2nc3c(N[C@@H]4CCN(C)C(=O)C4)cccn3c2SC(F)(F)F)c(OC)c1"
quantity_measured = "IC50"
result_value = "> 3000 nM"


Could you tell me which IC50 is on file for `COc1cc(S(C)(=O)=O)ccc1NCC#Cc1nc2c(N[C@@H]3CCN(C)C[C@@H]3F)cccn2c1SC(F)(F)F` ?
< 750 nM

Given `CNC(=O)c1ccc(NCC#Cc2cc3c(N[C@@H]4CCN(C)C[C@@H]4F)cccn3c2SC(F)(F)F)c(OC)c1` , state its recorded IC50.
< 750 nM

What does the record list as IC50 for `CNC(=O)c1ccc(NCC#Cc2nc3c(N[C@@H]4CCN(C)C[C@@H]4F)cc(F)cn3c2SC(F)(F)F)c(OC)c1` ?
< 750 nM

Quick one: IC50 of `CNC(=O)c1ccc(OC)c(NCC#Cc2cc3c(N[C@@H]4CCNC[C@@H]4F)cccn3c2SC(F)(F)F)c1` ?
< 750 nM

Look up IC50 for this compound: `COc1cc2n[nH]cc2cc1NCC#Cc1nc2c(N[C@@H]3CCN(C)C[C@@H]3F)cccn2c1SC(F)(F)F`
750 to 1500 nM

Value lookup for IC50; key = `CN1CC[C@@H](Nc2cccn3c(CC(F)(F)F)c(C#C[C@H](O)c4ccccc4)nc23)[C@@H](F)C1`
1500 to 3000 nM

Looking for the measured IC50 of `CN1CC[C@@H](Nc2cccn3c(CC(F)(F)F)c(C#C[C@@H](O)c4ccccc4)nc23)[C@@H](F)C1` , can you help?
1500 to 3000 nM

Name the reported IC50 value associated with the compound `CNC(=O)c1ccc(NCC#Cc2nc3c(N[C@@H]4CCN(C)C[C@@H]4F)cccn3c2SC(F)F)c(OC)c1`
< 750 nM

Need IC50 of `CNC(=O)c1ccc(N[C@H](C)C#Cc2nc3c(N[C@@H]4CCN(C)C[C@@H]4F)cccn3c2SC(F)(F)F)c(OC)c1` , thanks.
> 3000 nM

Give its IC50 value. Item: CNC(=O)c1ccc(NCC#Cc2nc3c(N[C@@H]4CCN(C)C[C@@H]4F)cc(F)cn3c2CC(F)(F)F)c(OC)c1 [Example 99, formic acid salt]
750 to 1500 nM

# input compound: `COc1cc(S(C)(=O)=O)ccc1NCC#Cc1nc2c(NC3CCN(CCS(C)(=O)=O)CC3)cccn2c1CC(F)(F)F` ; wanted: its IC50
> 3000 nM

Endpoint output: IC50 of `COc1cc(C(=O)N(C)C)ccc1NCC#Cc1nc2c(N[C@@H]3CCN(C)C[C@@H]3F)cccn2c1SC(F)(F)F` . Value?
< 750 nM

Data request, read-out IC50, for COc1cc(S(C)(=O)=O)ccc1NCC#Cc1nc2c(NC3CCN(C)CC3)cc(-c3ccccc3)cn2c1CC(F)(F)F [Example 34, formic acid salt]
1500 to 3000 nM

State the recorded IC50 for this entry: C=C(C)C(=O)Nc1cc(NC2CCN(C)CC2)c2nc(C#CCNc3ccc(C(=O)NC)cc3OC)c(CC(F)(F)F)n2c1 [Example 13, formic acid salt]
> 3000 nM

Dear colleague, I am looking for the recorded IC50 of the following compound: `COc1cc(C(=O)NC2CC2)ccc1NCC#Cc1nc2c(N[C@@H]3CCN(C)C[C@@H]3F)cccn2c1CC(F)(F)F`
750 to 1500 nM

Which IC50 value belongs to `COc1ncc(C(N)=O)cc1NCC#Cc1nc2c(N[C@@H]3CCN(C)C[C@@H]3F)cccn2c1SC(F)(F)F` ?
< 750 nM

Look at this compound and give its reported IC50. `CNC(=O)c1ccc(OC)c(NCC#Cc2nc3c(N[C@H]4C[C@@H]5CC[C@H]([C@H]4F)N5C)cccn3c2SC(F)(F)F)c1`
< 750 nM

Which IC50 is listed for `CNC(=O)c1ccc(OC)c(NCC#Cc2nc3c(N[C@@H]4CCN(C)C[C@@H]4F)cccn3c2SC(F)(F)F)c1` ?
< 750 nM

Query (compound): `COc1cc2c(cc1NCC#Cc1nc3c(N[C@@H]4CCN(C)C[C@@H]4F)cccn3c1CC(F)(F)F)CCNC2=O` ; field requested: IC50
< 750 nM

Query: IC50; subject: `CNC(=O)c1ccc(O)c(NCC#Cc2cc3c(N[C@@H]4CCN(C)C[C@@H]4F)nccn3c2SC(F)(F)F)c1`
< 750 nM

Please give the measured IC50 for this compound: `CNC(=O)c1ccc(C)c(NCC#Cc2nc3c(N[C@@H]4CCN(C)C[C@@H]4F)cccn3c2SC(F)(F)F)c1`
< 750 nM

IC50 lookup needed for `COc1cc(S(C)(=O)=O)ccc1NCC#Cc1nc2c(NC3CCN(C4CC4)CC3)cccn2c1CC(F)(F)F` , thanks.
1500 to 3000 nM

Item `CNC(=O)c1ccc(OC)c(NCC#Cc2cc3c(N[C@@H]4CN(C)C[C@@H]4F)nccn3c2SC(F)(F)F)n1` has what recorded IC50?
< 750 nM
